Measured IC50, listed per entry.
Target: Pim-2 stably transfected into the U2OS human osteogenic sarcoma line (Homo sapiens)
Construct: expressed in transfected cells; host or cells: U2OS human osteogenic sarcoma line
Sequence (Q9P1W9 whole entry): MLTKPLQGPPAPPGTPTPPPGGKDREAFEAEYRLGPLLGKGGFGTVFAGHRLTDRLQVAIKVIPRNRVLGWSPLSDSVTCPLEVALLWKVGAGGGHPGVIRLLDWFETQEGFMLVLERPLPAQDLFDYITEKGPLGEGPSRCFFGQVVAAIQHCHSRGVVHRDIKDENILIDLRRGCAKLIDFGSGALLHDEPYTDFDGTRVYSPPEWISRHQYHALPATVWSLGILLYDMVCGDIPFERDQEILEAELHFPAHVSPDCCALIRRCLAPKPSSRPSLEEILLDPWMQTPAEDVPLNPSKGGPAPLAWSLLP
Assay: Pim cell assay, phospho-BAD normalized against total BAD, U2OS stably transfected with Pim-2
Format: cell-based
Conditions: U2OS stably transfected with Pim-2; phospho-BAD normalized against total BAD; 29 min incubation; read-out: Pim2_Cell_IC50_
measurement.kind: IC50

molecule	tgt	readout.value
O=C(Nc1ccc(-c2ccc3[nH]cc(-c4cncc(O[C@@H]5CCCNC5)n4)c3c2)cc1)C1CC1 [Example 311]	Pim-2 stably transfected into the U2OS human osteogenic sarcoma line (Homo sapiens)	> 31.6 µM
Oc1ncc(-c2ccc3[nH]cc(-c4cncc(O[C@@H]5CCCNC5)n4)c3c2)c(O)n1 [Example 293]	Pim-2 stably transfected into the U2OS human osteogenic sarcoma line (Homo sapiens)	> 31.6 µM
CC(C)Oc1ccc(-c2ccc3[nH]cc(-c4cncc(O[C@@H]5CCCNC5)n4)c3c2)cc1 [Example 324]	Pim-2 stably transfected into the U2OS human osteogenic sarcoma line (Homo sapiens)	> 31.6 µM
c1cc2[nH]nc(-c3cncc(C4CC4)n3)c2cc1-c1cncc(C2CC2)n1 [Example 244]	Pim-2 stably transfected into the U2OS human osteogenic sarcoma line (Homo sapiens)	> 10 µM
NC1CCN(c2cncc(-c3n[nH]c4ccc(-c5cncc(NC6CC6)n5)cc34)n2)CC1 [Example 509]	Pim-2 stably transfected into the U2OS human osteogenic sarcoma line (Homo sapiens)	4.23 µM
Oc1cc(-c2c[nH]c3ccc(-c4c(F)cccc4F)cc23)nc(N2CCOCC2)n1 [Example 483]	Pim-2 stably transfected into the U2OS human osteogenic sarcoma line (Homo sapiens)	> 31.6 µM
COC(=O)c1ccc2[nH]nc(-c3cncc(N[C@@H]4CCCNC4)n3)c2c1 [Example 473]	Pim-2 stably transfected into the U2OS human osteogenic sarcoma line (Homo sapiens)	9.63 µM
N#Cc1ccccc1-c1ccc2[nH]cc(-c3cncc(O[C@@H]4CCCNC4)n3)c2c1 [Example 326]	Pim-2 stably transfected into the U2OS human osteogenic sarcoma line (Homo sapiens)	7.19 µM

---

Target: full length recombinant Pim-2 protein (Homo sapiens, UniProt Q9P1W9)
Construct: by full length recombinant Pim-1, Pim-2, or Pim-3 protein; hexahistidine tag followed by a thrombin cleavage site (N); made in house; host or cells: Sf9 (baculovirus) or E. coli (pET28)
Sequence (Q9P1W9 whole entry): as above
Assay: Pim-2 enzyme assay (HTRF, phosphorylation of biotinylated-BAD (S112) peptide)
Assay type: biochemical
Settings: read-out: Pim2_IC50
Examples of molecules with documented log10 IC50 follow.
measurement.kind: log10 IC50 (log10 of the value in nM)

molecule	log10 IC50
COc1ccc(-c2ccc3[nH]cc(-c4cncc(O[C@@H]5CCCNC5)n4)c3c2)cc1OC	2.20
c1cc(-c2ccc3[nH]cc(-c4cncc(O[C@@H]5CCCNC5)n4)c3c2)nc(N2CCNCC2)c1	2.36
Fc1cccc(F)c1-c1ccc2[nH]nc(-c3cncc(SC4CCCNC4)n3)c2c1 (single isomer, unassigned) [Example 414]	1.78
O=c1cc(-c2n[nH]c3cc(F)c(-c4c(F)cccc4F)cc23)nc(O[C@H]2CNCC[C@@H]2F)[nH]1	0.00
CC(C)NC(=O)c1ccc(F)c(-c2ccc3[nH]nc(-c4cncc(N[C@@H]5CCCNC5)n4)c3c2)c1	0.85
N#Cc1ccccc1-c1ccc2[nH]cc(-c3cncc(O[C@@H]4CCCNC4)n3)c2c1	1.00
CNC(=O)c1ccc2[nH]nc(-c3cncc(N4CCC(N)CC4)n3)c2c1	2.31
